Origin of values: PubChem BioAssay (NCI)

# Test system: SF-295 CNS
# Experiment notes: NCI-60 one-dose screen, 48 h
# Condition details: 10 µM unless noted
This is part of a sample that, as a whole, favours compounds with a hit. Of some 83,000 tested, about 20% had one in any assay. Active and inactive are the calls of the source. How the source made its calls: active means growth percent below 10; inactive means the rest.
Possible outcomes: yes (active), no (inactive)

chemical_smiles=Cc1cnc([C@]23CC[C@@H](C)[C@H](C)[C@H]2C2=CC[C@@H]4[C@@]5(C)Cc6c([nH]c7ccccc67)C(C)(C)[C@@H]5CC[C@@]4(C)[C@]2(C)CC3)o1 class_label=no
chemical_smiles=O=C(Nc1cccc(F)c1)c1cc(=O)[nH]c2cc(Br)ccc12 class_label=no
chemical_smiles=CCCc1cc2cc(-n3nc(C)c4c3CC(C)(C)CC4=O)cc(NC3CCSCC3)c2c(=O)[nH]1 class_label=no
chemical_smiles=CC1(C)CC[C@]2(C(=O)O)CC[C@]3(C)C(=CC[C@@H]4[C@@]5(C)C/C(=C/c6ccco6)C(=O)C(C)(C)[C@@H]5CC[C@]43C)[C@@H]2C1 class_label=yes
chemical_smiles=Cc1cnc(N)nc1OCCNC(=O)c1cccc(-c2ccc(S(=O)(=O)Nc3ccc4c(c3)N(C(=O)C3CC3)CCC4)cc2)c1 class_label=no
chemical_smiles=O=C(O)c1cccc(CN2CCN(c3cc4c(cc3F)c(=O)c(C(=O)O)cn4C3CC3)CC2)c1O class_label=no
chemical_smiles=O=C(CSc1nccc(Nc2ccc(S(=O)(=O)Nc3ccccn3)cc2)n1)c1ccc(Cl)cc1 class_label=no
